- test_system: human D-amino acid oxidase (hDAAO) (Homo sapiens (Human))
- Sequence (P14920 whole entry): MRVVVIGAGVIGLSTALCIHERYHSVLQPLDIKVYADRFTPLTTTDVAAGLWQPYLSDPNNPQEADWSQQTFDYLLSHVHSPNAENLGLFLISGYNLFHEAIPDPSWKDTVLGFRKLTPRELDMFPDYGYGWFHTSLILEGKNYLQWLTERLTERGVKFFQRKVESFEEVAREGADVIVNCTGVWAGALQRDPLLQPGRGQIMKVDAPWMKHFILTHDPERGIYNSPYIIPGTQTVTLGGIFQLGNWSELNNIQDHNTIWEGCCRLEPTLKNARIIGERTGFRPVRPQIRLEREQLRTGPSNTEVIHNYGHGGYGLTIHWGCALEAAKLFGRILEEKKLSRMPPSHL
- assay_text: In vitro human D-amino acid oxidase (hDAAO) activity, D-Serine/Amplex Red fluorescence
- Assay type: biochemical
- conditions: D-Serine substrate, 20 min
Counter-ions that a name gives are not always drawn.
This section presents molecules with their documented IC50 values.
Give just the number in nM; leave the unit off.

Solved cases (3 shown):
{"columns": ["molecule", "property_label", "quantitative_result"],
 "data": [
  ["O=C(Oc1cc(C(=O)Oc2cc(C(=O)O[C@@H]3OC[C@@H](OC(=O)c4cc(O)c(O)c(OC(=O)c5cc(O)c(O)c(OC(=O)c6cc(O)c(O)c(O)c6)c5)c4)[C@H](OC(=O)c4cc(O)c(O)c(OC(=O)c5cc(O)c(O)c(OC(=O)c6cc(O)c(O)c(O)c6)c5)c4)[C@H]3OC(=O)c3cc(O)c(O)c(OC(=O)c4cc(O)c(O)c(OC(=O)c5cc(O)c(O)c(O)c5)c4)c3)cc(O)c2O)cc(O)c1O)c1cc(O)c(O)c(O)c1", "IC50", 3.6],
  ["O=C(Oc1ccccc1)c1cc(O)c(O)c(OC(=O)c2cc(O)c(O)c(OC(=O)c3cc(O)c(O)c(OC(=O)c4cc(O)c(O)c(OC(=O)c5cc(O)c(O)c(OC(=O)c6ccccc6)c5)c4)c3)c2)c1", "IC50", 31],
  ["O=C(Oc1cc(C(=O)Oc2cc(C(=O)Oc3cc(C(=O)Oc4cc(C(=O)OC5CCCCC5)cc(O)c4O)cc(O)c3O)cc(O)c2O)cc(O)c1O)c1cc(O)c(O)c(O)c1", "IC50", 26]
]}

# next molecule below
get_value(item= O=C(Oc1cccnc1)c1cc(O)c(O)c(OC(=O)c2cc(O)c(O)c(OC(=O)c3cc(O)c(O)c(OC(=O)c4cc(O)c(O)c(OC(=O)c5cc(O)c(O)c(O)c5)c4)c3)c2)c1 [Compound 94, hydrochloride salt] , readout=IC50) returns 42

###

Record set of pIC50 for target or system UniProt P14920.
Note: pIC50 values are expressed as the negative base-10 logarithm of concentration in M.

Solved cases (2 shown):
{"columns": ["molecule", "quantitative_result"],
 "data": [
  ["O=C(OC[C@H]1O[C@H](OC(=O)c2cc(O)c(O)c(OC(=O)c3cc(O)c(O)c(OC(=O)c4cc(O)c(O)c(OC(=O)c5cc(O)c(O)c(O)c5)c4)c3)c2)[C@H](OC(=O)c2cc(O)c(O)c(OC(=O)c3cc(O)c(O)c(OC(=O)c4cc(O)c(O)c(OC(=O)c5cc(O)c(O)c(O)c5)c4)c3)c2)[C@@H]1OC(=O)c1cc(O)c(O)c(OC(=O)c2cc(O)c(O)c(OC(=O)c3cc(O)c(O)c(OC(=O)c4cc(O)c(O)c(O)c4)c3)c2)c1)c1cc(O)c(O)c(OC(=O)c2cc(O)c(O)c(OC(=O)c3cc(O)c(O)c(OC(=O)c4cc(O)c(O)c(O)c4)c3)c2)c1 [Compound 138]", 8.40],
  ["O=C(O)c1cc(O)c(O)c(OC(=O)c2cc(O)c(O)c(OC(=O)c3cc(O)c(O)c(OC(=O)c4cc(O)c(O)c(OC(=O)c5cc(O)c(O)c(OC(=O)c6cc(CCc7cc(F)cc(F)c7)n[nH]6)c5)c4)c3)c2)c1 [Compound 58]", 7.48]
]}

# pIC50 measured on UniProt P14920 for item O=C(Oc1cc(C(=O)Oc2cc(C(=O)Oc3cc(C(=O)O[C@H]4OC[C@@H](OC(=O)c5cc(O)c(O)c(OC(=O)c6cc(O)c(O)c(OC(=O)c7cc(O)c(O)c(OC(=O)c8cc(O)c(O)c(O)c8)c7)c6)c5)[C@H](OC(=O)c5cc(O)c(O)c(OC(=O)c6cc(O)c(O)c(OC(=O)c7cc(O)c(O)c(OC(=O)c8cc(O)c(O)c(O)c8)c7)c6)c5)[C@H]4OC(=O)c4cc(O)c(O)c(OC(=O)c5cc(O)c(O)c(OC(=O)c6cc(O)c(O)c(OC(=O)c7cc(O)c(O)c(O)c7)c6)c5)c4)cc(O)c3O)cc(O)c2O)cc(O)c1O)c1cc(O)c(O)c(O)c1 [Compound 121] = 8.60

# pIC50 measured on UniProt P14920 for item O=C(O)c1cc(O)c(O)c(OC(=O)c2cc(O)c(O)c(OC(=O)c3cc(O)c(O)c(OC(=O)c4cc(O)c(O)c(OC(=O)c5cc(O)c(O)c(OC(=O)c6cc(CCc7ccc(C(F)(F)F)cc7)n[nH]6)c5)c4)c3)c2)c1 [Compound 66] = 7.60

Where do the numbers come from? From patent US11793823B2.
